Target: Coelenterazine h 2-monooxygenase (Renilla reniformis)
Sequence (P27652 whole entry): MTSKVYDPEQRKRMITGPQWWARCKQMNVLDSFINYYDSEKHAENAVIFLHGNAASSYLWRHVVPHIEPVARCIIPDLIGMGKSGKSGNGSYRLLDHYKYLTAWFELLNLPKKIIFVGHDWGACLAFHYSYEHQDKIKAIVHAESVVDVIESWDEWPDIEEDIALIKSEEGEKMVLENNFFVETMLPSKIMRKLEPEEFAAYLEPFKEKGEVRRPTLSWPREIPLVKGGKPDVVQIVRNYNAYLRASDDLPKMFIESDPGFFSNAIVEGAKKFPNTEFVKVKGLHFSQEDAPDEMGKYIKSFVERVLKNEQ
Conditions: read-out: AC50
Description: GSK_PKIS: Inhibition of Sea Pansy Luciferase (Data from PubChem: AID 652015) [NIH NCATS]
We begin with a simple list: items and their reported AC50.
Record the result as a number with its unit.

| compound | reading |
| --- | --- |
| COC(=O)Nc1nc2ccc(Sc3ccc(NC(=O)Nc4cc(C(F)(F)F)ccc4F)cc3)cc2[nH]1.O=S(=O)(O)O [GW607049C] | 0.0006 µM |
| COc1cc(N2CCN(C(C)C)CC2)ccc1Nc1nc(Nc2cccc3ncccc23)c2cc[nH]c2n1 [GSK-1511931A] | 18.3 µM |
| COc1cc2ncn(-c3cc(O[C@H](C)c4ccccc4Cl)c(C(N)=O)s3)c2cc1OC [GSK-237701A] | 3.66 µM |
| Fc1ccc(-c2ncn(C3CCNCC3)c2-c2ccnc(Oc3ccc(Oc4ccccc4)cc3)n2)cc1 | 20.6 µM |
| O=S(=O)(CCOCc1ccc(-c2ccc3ncnc(Nc4ccc(OCc5cccc(F)c5)c(Cl)c4)c3c2)o1)c1ccccc1 [GW615311X] | 46.1 µM |

Request: For the compound COc1cccc(-n2ncc3c(N/N=C/c4ccc(F)cc4)ncnc32)c1 [GW817396X] , what AC50 is on record?
Response: 0.0005 µM

Request: Please answer likewise for CN1CCN(CCCNc2nc3ccc(Oc4ccc(NC(=O)Nc5cc(C(F)(F)F)ccc5F)cc4)cc3[nH]2)CC1.Cl [GW700494A]
Response: 23.1 µM

Request: Try this compound next: O=C1Nc2ccc(-c3cccnc3)cc2C1=Cc1cc(Br)c(O)c(Br)c1 [GW429374A]
Response: 18.3 µM

* * *

Target: Luciferin 4-monooxygenase (Photinus pyralis, UniProt P08659)
Sequence (P08659 whole entry): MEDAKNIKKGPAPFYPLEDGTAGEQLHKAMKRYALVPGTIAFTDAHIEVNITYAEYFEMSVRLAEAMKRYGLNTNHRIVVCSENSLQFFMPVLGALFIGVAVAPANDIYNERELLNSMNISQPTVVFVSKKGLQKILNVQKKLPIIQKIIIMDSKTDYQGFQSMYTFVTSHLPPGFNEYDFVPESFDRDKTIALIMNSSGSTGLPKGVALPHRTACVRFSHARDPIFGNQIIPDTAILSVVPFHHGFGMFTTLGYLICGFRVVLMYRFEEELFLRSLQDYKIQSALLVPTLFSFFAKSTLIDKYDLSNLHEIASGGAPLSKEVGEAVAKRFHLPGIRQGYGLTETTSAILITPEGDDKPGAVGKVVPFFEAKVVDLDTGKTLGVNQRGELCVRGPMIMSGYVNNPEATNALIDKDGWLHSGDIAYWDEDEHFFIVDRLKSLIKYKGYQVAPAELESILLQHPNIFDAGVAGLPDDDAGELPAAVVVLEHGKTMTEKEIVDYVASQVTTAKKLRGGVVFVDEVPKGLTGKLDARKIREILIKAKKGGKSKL
Conditions: read-out: AC50
Description: GSK_PKIS: Inhibition of Firefly Luciferase (Data from PubChem: AID 652016) [NIH NCATS]
Just a reminder that ties go to Criterion not met: only AC50 strictly below 20 µM counts as Criterion met.

The examples below pair each entry with its known result.
| compound | group |
| --- | --- |
| CC(C)(CO)CNC(=O)c1ccc2c(c1)/C(=N/Nc1ccc(S(N)(=O)=O)cc1)C(=O)N2 [GW301784X] | Criterion not met |
| Nc1ccc(C#Cc2cncnc2Nc2ccc(OCc3cccc(F)c3)c(Cl)c2)cc1 [GW659893X] | Criterion not met |
| COc1cc(N2CCN(C(C)C)CC2)ccc1Nc1nc(Nc2ccc(F)cc2C(N)=O)c2cc[nH]c2n1 [GSK-1220512A] | Criterion not met |

Request: Answer whether the compound CNC(=O)c1cncc(/C=C/c2ccccc2Cl)c1 [GW445017X] has AC50 strictly less than 20 µM
Response: Criterion met

Request: Can you check c1cnn2ncc(-c3ccnc(NCCCN4CCOCC4)n3)c2c1 [GW683109X] next?
Response: Criterion not met

Request: Then N#Cc1ccc2c(-c3ccnc(NC4CC4)n3)c(-c3ccc(F)cc3)nn2c1 [GW561436X] ?
Response: Criterion not met

Request: And for O=C(O)/C=C/C(=O)O.OCCCNc1nccc(-c2c(-c3ccc(F)cc3)nn3cc(C(F)(F)F)ccc23)n1 [GW569293E] ?
Response: Criterion not met

Request: Could you do the same for O=C(O)C(F)(F)F.[O-][S+]1CCN(Cc2ccc(-c3ccc4ncnc(Nc5ccc(OCc6cccc(F)c6)c(Cl)c5)c4c3)o2)CC1 [GW576609A] , please?
Response: Criterion met

Request: Let us now turn to `CS(=O)(=O)Nc1ccc(-c2ccc3c(NC(=O)C4CC4)n[nH]c3c2)cc1`
Response: Criterion not met

Request: How about this compound: CS(=O)(=O)CCNCc1ccoc1-c1ccc2ncnc(Nc3ccc(OCc4ccccc4)cc3)c2c1.Cl [GW568377A]
Response: Criterion not met

Request: `CS(=O)(=O)Nc1cccc(-c2ccc3c(NC(=O)C4CC4)n[nH]c3c2)c1` , same question.
Response: Criterion not met

* * *

Target: Luciferin 4-monooxygenase (Photinus pyralis, UniProt P08659)
Settings: read-out: AC50
Reported log10 of AC50 by item:
Please note: log10 values; quantity AC50; unit µM.

Look over these answered cases.
| molecule | log10 of AC50 |
| --- | --- |
| Cc1ccc(C(=O)NC2CC2)cc1-c1ccc2[nH]ncc2c1 [GW820759X] | 1.26 |
| CCOc1ccc2c(-c3ccnc(Nc4cc(OC)cc(C(F)(F)F)c4)n3)cnn2n1 [GW807982X] | 1.16 |
| COc1cccc(-n2ncc3c(N/N=C/c4ccc(S(C)(=O)=O)cc4)ncnc32)c1 | 1.26 |
| CNC(=O)Oc1cc(C)c(/C=C/c2cncc(C(=O)NC)c2)c(C)c1 [GW432441X] | 1.46 |
| O=C(Nc1n[nH]c2cc(-c3cc(F)ccc3F)ccc12)C1CC1 | 1.21 |

Request: Quick check: log10 of AC50 of N#Cc1c(NC(=O)c2ccccc2F)sc2c1CCCC2 [GW572738X] ?
Response: -0.09

Request: And for Cc1cc(O)cc(C)c1/C=C/c1cncc(-c2nn[nH]n2)c1.Cl [GW441806A] ?
Response: 1.46

Request: Then `COc1ccc(-c2ccc3c(NC(=O)C4CC4)n[nH]c3n2)cc1` ?
Response: 0.36

Request: Consider next the molecule Cc1ccc(NC(=O)CC2CC2)cc1-c1ccc(C(=O)NCC2CC2)cc1 [GW796920X] in the same way.
Response: 1.26

Request: // same read-out, input: NS(=O)(=O)c1cccc(N/C=C2\C(=O)Nc3ccccc32)c1 [GW275616X]
Response: 1.26

* * *

# AC50 per record follows
Target: Luciferin 4-monooxygenase (Photinus pyralis, UniProt P08659)
Conditions: read-out: AC50
Give the value in µM but do not write µM after it.

Here's what some known entries look like.
| compound | AC50 (µM) |
| --- | --- |
| O=C(O[C@H]1CN[C@H](C#Cc2cc3ncnc(Nc4ccc(OCc5cccc(F)c5)c(Cl)c4)c3s2)C1)N1CCOCC1 [GW869810X] | 20.6 |
| CC1=C(C(=O)Nc2ccc3[nH]ncc3c2)C(c2ccc3ccccc3c2)CC(=O)N1 (configuration not stated) [GSK-270822A] | 41.1 |
| COc1ccc(-c2cc(-c3c[nH]nc3-c3ccccn3)ccn2)cc1 [GW679410X] | 16.3 |
| Cl.O=S(=O)(CCNCc1ccc(-c2ccc3ncnc(Nc4ccc(OCc5cccc(F)c5)c(Cl)c4)c3c2)o1)c1ccccc1 [GW633459A] | 29.1 |
| CS(=O)(=O)CCNCc1ccc(-c2ccc3ncnc(Nc4ccc(OCc5ccccc5)cc4)c3c2)o1.Cl [GW458787A] | 18.3 |
| NS(=O)(=O)c1ccc(N/N=C2\C(=O)Nc3ccc(Cl)cc32)cc1 [GW280670X] | 41.1 |
| Cc1ccc(O)cc1Nc1ccnc2cc(-c3ccccn3)ccc12 [GW440139A] | 20.6 |
| CN(c1ccc(NC(=O)Nc2ccc(OC(F)(F)F)cc2)cc1)c1ccnc(Nc2cccc(S(N)(=O)=O)c2)n1 [GW806742X] | 18.3 |

Request: Form field - read-out: AC50; system: Luciferin 4-monooxygenase (Photinus pyralis, UniProt P08659); submitted item: `Fc1ccc(-c2ncn(C3CCNCC3)c2-c2ccnc(Oc3ccccc3)n2)cc1`
Response: 20.6

Request: Try the compound `O=C(Nc1n[nH]c2nc(-c3ccc(O)cc3)c(Br)cc12)C1CC1`
Response: 20.6

Request: Let us now turn to `CC1(C)CC(n2cnc(-c3ccc(F)cc3)c2-c2ccnc(N)n2)CC(C)(C)N1`
Response: 41.1

* * *

Target: Luciferin 4-monooxygenase (Photinus pyralis, UniProt P08659)
Conditions: read-out: AC50
experimental.readout: AC50 (µM)
Enter your answer as a number in µM; do not include the unit.

Solved entries:
| molecule | units.symbol | AC50 |
| --- | --- | --- |
| Nc1nc(-c2ccc3c(c2)C(=Cc2cc(Br)c(O)c(Br)c2)C(=O)N3)cs1 [GW407323A] | µM | 29.1 |
| CN(C)C(=O)O[C@H]1CN[C@H](C#Cc2cc3ncnc(Nc4ccc(OCc5cccc(F)c5)c(Cl)c4)c3s2)C1 [GSK-182497A] | µM | 29.1 |
| CN(C)c1cc2c(Nc3ccc4nc(Cc5ccccc5)[nH]c4c3)ncnc2cn1 [GW301888X] | µM | 16.3 |
| O=C(Nc1n[nH]c2cc(-c3ccc(F)cc3)ccc12)C1CC1 | µM | 16.3 |

Request: What measured AC50 goes with `CCN1CCC(CC(=O)Nc2n[nH]c3nnc(-c4cccc(F)c4F)cc23)CC1.O=C(O)C(O)C(O)C(=O)O` ?
Response: 41.1

Request: Lookup Cc1cc(-c2ccco2)cc(C)c1/C=C/c1cncc(-c2nn[nH]n2)c1.Cl [GW458344A]
Response: 20.6

Request: Try this molecule next: COc1cccc(-n2ncc3c(N/N=C/c4ccncc4)ncnc32)c1 [GW784752X]
Response: 6.51

Request: Try this molecule too: O=C1Nc2ccccc2/C1=C/Nc1ccc2[nH]c(=O)[nH]c2c1 [GW284408X]
Response: 4.11

Request: Now consider `O=C1NC(=O)C(N2CCc3ccccc32)=C1c1ccc(Cl)cc1` and answer again.
Response: 6.51
